# Test System: human ether-à-go-go-related gene (hERG) potassium channel (human, UniProt Q12809);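 note: peak tail current of the secondary pulse compared with the same well before compound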
# Sequence (Q12809 whole entry, looked up): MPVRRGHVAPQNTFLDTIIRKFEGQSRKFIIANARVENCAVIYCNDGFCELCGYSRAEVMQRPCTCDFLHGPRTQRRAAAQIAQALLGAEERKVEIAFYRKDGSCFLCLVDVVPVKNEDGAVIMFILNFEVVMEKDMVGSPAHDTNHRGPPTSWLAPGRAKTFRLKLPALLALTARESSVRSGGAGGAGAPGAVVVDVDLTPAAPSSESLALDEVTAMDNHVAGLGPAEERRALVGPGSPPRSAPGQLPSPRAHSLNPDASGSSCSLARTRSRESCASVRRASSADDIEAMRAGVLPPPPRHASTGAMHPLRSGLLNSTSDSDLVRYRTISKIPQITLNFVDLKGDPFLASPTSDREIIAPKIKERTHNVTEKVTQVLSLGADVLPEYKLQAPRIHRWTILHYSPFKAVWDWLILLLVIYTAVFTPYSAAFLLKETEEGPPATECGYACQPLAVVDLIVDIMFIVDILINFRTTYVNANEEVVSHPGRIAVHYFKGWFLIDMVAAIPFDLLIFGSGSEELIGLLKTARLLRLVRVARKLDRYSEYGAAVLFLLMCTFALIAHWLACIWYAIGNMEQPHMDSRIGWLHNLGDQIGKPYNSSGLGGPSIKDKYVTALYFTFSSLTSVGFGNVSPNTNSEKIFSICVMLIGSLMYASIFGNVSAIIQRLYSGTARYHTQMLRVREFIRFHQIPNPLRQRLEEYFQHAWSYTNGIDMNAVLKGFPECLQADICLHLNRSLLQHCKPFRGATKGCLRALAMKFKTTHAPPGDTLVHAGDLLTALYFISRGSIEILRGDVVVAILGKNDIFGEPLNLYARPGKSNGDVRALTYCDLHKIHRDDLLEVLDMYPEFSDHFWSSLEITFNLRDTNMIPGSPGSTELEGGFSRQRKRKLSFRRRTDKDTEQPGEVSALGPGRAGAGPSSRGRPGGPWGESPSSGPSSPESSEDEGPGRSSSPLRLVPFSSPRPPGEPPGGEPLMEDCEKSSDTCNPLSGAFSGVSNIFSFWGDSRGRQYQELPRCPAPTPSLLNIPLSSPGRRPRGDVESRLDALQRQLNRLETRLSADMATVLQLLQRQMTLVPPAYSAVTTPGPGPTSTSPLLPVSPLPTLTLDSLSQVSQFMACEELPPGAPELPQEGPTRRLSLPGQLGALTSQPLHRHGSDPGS
# Assay Notes: primary screen, population patch clamp on CHO cells stably expressing hERG; higher = less effect of the substance
The campaign covered roughly 310,000 compounds. About 14,000 (4.5%) showed an effect of 50% or more. Effects have a minus sign here. What follows is part of a selection rich in strong results, with near analogues and random picks from the rest.
hERG current change (%, negative = inhibition) at 10uM values, listed per item
Just the number in %, nothing appended.

[[record]]
compound = "O=C(OCn1nnc2ccccc2c1=O)C1CCCCC1"
test_system = "human ether-à-go-go-related gene (hERG) potassium channel (human, UniProt Q12809)"
number = 5.57

[[record]]
compound = "COc1ccc(NS(=O)(=O)c2cccc(C(=O)N3CCCCCCC3)c2)cc1"
test_system = "human ether-à-go-go-related gene (hERG) potassium channel (human, UniProt Q12809)"
number = -28.9

[[record]]
compound = "O=[N+]([O-])c1c(Nc2ccccn2)cc(Cl)c2nonc12"
test_system = "human ether-à-go-go-related gene (hERG) potassium channel (human, UniProt Q12809)"
number = 9.59

[[record]]
compound = "CC(OC(=O)c1cccc([N+](=O)[O-])c1)C(=O)NCc1ccc2c(c1)OCO2 (centres unmarked)"
test_system = "human ether-à-go-go-related gene (hERG) potassium channel (human, UniProt Q12809)"
number = -11.4


Consider the additional compound presented here.
Which hERG current change (%, negative = inhibition) at 10uM value belongs to `COc1ccc(NS(=O)(=O)c2cccc(C(=O)NCC3(N4CCCCC4)CCCCC3)c2)cc1` ?
-55.4

###

# Test System: human ether-à-go-go-related gene (hERG) potassium channel (human);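 note: peak tail current of the secondary pulse compared with the same well before compound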
# Assay Notes: primary screen, population patch clamp on CHO cells stably expressing hERG; higher = less effect of the substance
# Description: Briefly, Chinese hamster ovary (CHO) cells stably expressing the hERG channel were dislodged from tissue culture flasks and dispensed into PPC plates. […] During the recording, background leak currents were estimated by a 100 ms step to -80 mV from an initial holding potential of -70 mV and subtracted from the subsequent current measurement. The campaign was conducted in two phases using slight differences in recording protocol. […]
Screen size: about 310,000 compounds; about 14,000 (4.5%) showed an effect of 50% or more. The effect is printed as a negative number. Only a selection was taken, and strong results are over-represented in it overall.
Kind request: treat -20% as inclusive, so hERG current change (%, negative = inhibition) at 10uM at -20% or higher is yes, anything lower is no.

Reference set, count: 5
[[record]]
molecule = "COc1ccc(CCC(=O)N2CCN(S(=O)(=O)c3ccc(OC)cc3)CC2)cc1"
group = "yes"

[[record]]
molecule = "CCn1c(SCC(=O)NC(C)(C)C)nnc1-c1ccoc1C"
group = "yes"

[[record]]
molecule = "COc1cccc(-n2nnnc2SCC(=O)NCCc2ccccc2)c1"
group = "no"

[[record]]
molecule = "COC(=O)CSc1nnc(-c2ccoc2C)n1-c1ccc(OC)cc1"
group = "yes"

[[record]]
molecule = "COc1ccc(S(=O)(=O)Cc2ccc(C(=O)N3CCN(c4cc(Cl)ccc4C)CC3)o2)cc1"
group = "yes"


Hi team, for CCC(CO)N=CC1=C(O)CC(c2ccccc2)CC1=O (stereo not shown) , is the recorded hERG current change (%, negative = inhibition) at 10uM at or above -20%?
yes

hERG current change (%, negative = inhibition) at 10uM >= -20% for `COc1ccc(S(=O)(=O)Cc2ccc(C(=O)N3CCN(c4ccccc4F)CC3)o2)cc1` ?
no

Is it the case that `CCOC(=O)N1CCN(C(=O)c2ccc(CS(=O)(=O)c3ccc(OC)cc3)o2)CC1` has hERG current change (%, negative = inhibition) at 10uM reaching or exceeding -20%?
yes

Tell me whether hERG current change (%, negative = inhibition) at 10uM is at least -20% here: `COc1cccc(-n2c(SCC(=O)NCCc3ccccc3)nnc2-c2ccoc2C)c1`
no

Is the recorded value of hERG current change (%, negative = inhibition) at 10uM equal to or greater than -20% for this molecule? `COc1cccc(NC(=O)CSc2nnc(-c3ccoc3C)n2-c2ccccc2)c1`
no
